Cited source for all entries: patent US20260356856A1

# SUBJECT OF TEST: KRas-mediated phosphorylation of ERK in A549 cells (Homo sapiens, UniProt P01116, G12S)
# Construct: pERK HTRF read-out
# Sequence (P01116 1-188 isoform P01116-2 G12S): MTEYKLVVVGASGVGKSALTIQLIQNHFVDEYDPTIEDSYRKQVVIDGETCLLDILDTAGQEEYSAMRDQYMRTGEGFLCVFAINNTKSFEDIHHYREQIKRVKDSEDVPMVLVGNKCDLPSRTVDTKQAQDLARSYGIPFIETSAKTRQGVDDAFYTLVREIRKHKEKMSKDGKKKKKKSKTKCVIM
# TEST SUMMARY: Inhibition of KRas-mediated phosphorylation of ERK (HTRF), A549 cells
# Assay type: cell-based
# RUN CONDITIONS: HTRF pERK, 3 h incubation
PARAMETER: IC50 (nM)

[1] CCc1c(F)ccc2cc(O)cc(-c3ncc4c(N5CCC(C(=O)N(C)S(C)(=O)=O)CC5)nc(OC[C@@]56CCCN5C[C@H](F)C6)nc4c3F)c12 [Example 257]
[2] CCc1c(F)ccc2cc(O)cc(-c3ncc4c(N5CCC(C(=O)n6ccc(C(C)C)n6)CC5)nc(OC[C@@]56CCCN5C[C@H](F)C6)nc4c3F)c12 [Example 76]
[3] Cc1ccn(C(=O)CCCNc2nc(OC[C@@]34CCCN3C[C@H](F)C4)nc3c(F)c(-c4ccc(F)c5sc(N)c(C#N)c45)c(Cl)cc23)n1 [Example 142]
Please put the entries in order of rising IC50. Please express your ranking as an ordered list of the labels.
3, 2, 1
(3: 7 nM, 2: 223 nM, 1: 677 nM)

[I] Cc1ccn(C(=O)[C@H]2CCCN(c3nc(OC[C@@]45CCCN4C[C@H](F)C5)nc4c(F)c(-c5ccc(F)c6sc(N)c(C#N)c56)c(Cl)cc34)CC2)n1 (atropisomer, axis not shown; (aS)) [Example 169]
[II] CN(CCCC(=O)Oc1ccccc1)c1nc(OC[C@@]23CCCN2C[C@H](F)C3)nc2c(F)c(-c3ccc(F)c4sc(N)c(C#N)c34)c(Cl)cc12 [Example 204]
[III] CCc1c(F)ccc2cc(O)cc(-c3ncc4c(N5CCC(C(=O)n6nc(C)c(C)c6C)CC5)nc(OC[C@@]56CCCN5C[C@H](F)C6)nc4c3F)c12 [Example 73]
Could you please sort these 3 entries by IC50 from high to low? Please express your ranking as an ordered list of the labels.
III, I, II
(III: 8480 nM, I: 534 nM, II: 351 nM)

[a] CCc1c(F)ccc2cc(O)cc(-c3ncc4c(N5CCC(C(=O)n6cc(C(C)(C)C)cn6)CC5)nc(OC[C@@]56CCCN5C[C@H](F)C6)nc4c3F)c12 [Example 72]
[b] CCc1c(F)ccc2cc(O)cc(-c3ncc4c(N(C)CCN(C)C(=O)n5cncn5)nc(OC[C@@]56CCCN5C[C@H](F)C6)nc4c3F)c12 [Example 223]
Look at a and b . Which one has the lower recorded IC50 number? Give the chosen item's label as your response.
a
(a: 748 nM, b: 2390 nM)

[P] Cc1ccn(C(=O)[C@@H]2CCCN(c3nc(OC[C@@]45CCCN4C[C@H](F)C5)nc4c(F)c(-c5ccc(F)c6sc(N)c(C#N)c56)c(Cl)cc34)CC2)n1 (atropisomer, axis not shown; (aS)) [Example 172]
[Q] COC(=O)CCCN(C)c1nc(OC[C@@]23CCCN2C[C@H](F)C3)nc2c(F)c(-c3ccc(F)c4sc(N)c(C#N)c34)c(Cl)cc12 [Example 217]
Look at P and Q . Which one has the lower recorded IC50 number? Give the chosen item's label as your response.
P
